Data origin: the RNAGym collection of RNA variant scans (doi:10.1021/acssynbio.7b00057)

Item-by-item account of aptazyme ON/OFF ratio
B1: Pistol ribozyme (parent)
chain: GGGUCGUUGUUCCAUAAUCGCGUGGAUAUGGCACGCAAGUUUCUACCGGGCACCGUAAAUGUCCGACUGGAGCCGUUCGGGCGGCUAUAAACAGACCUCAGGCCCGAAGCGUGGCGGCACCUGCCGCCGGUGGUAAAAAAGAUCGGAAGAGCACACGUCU

variants of: B1; assay: aptazyme ON/OFF ratio, guanine; higher = stronger switching; co-transcriptional cleavage with and without guanine
Measurement kind: aptazyme ON/OFF ratio

U7G G9C U10A U11C C12G C13A
1.16
U8A G9U C12A
1.22
U8A G9C U10A U11G C12G C13G
1.16
U7A U8A G9A U10A U11C C12A
1.24
U7G G9A U10A U11A C12A C13G
1.13
U7G U8A G9U U10G U11A C12G C13A
1.03
G9C U10G U11A C12A C13G
1.06
U7G U8A G9U U11G C12A
1.07
U7C U8A U10C U11G
1.34
U7G U8G G9C U11G C13A
1.3
G9U C12U C13A
1.23
U7A U8A G9U U10A U11G C13A
1.22
U7C U8C G9C U10A U11C C12G
1.21
U7C U8C G9U U11C C12G C13U
1.08
U7G G9C U11A C12G C13U
1.36
U7G U8C G9U U11A C13U
1.56
U7C U8G G9U U10C U11C
1.06
U8A G9U U10G U11A C13G
1.03
G9C U10G U11A
1.08
U7G U10A U11G C12U
1.32
U7G U8C G9U U10A U11G
2.29
U7C U8C G9U U10G U11G C13U
1.08
U7A U8A G9C U10C C12A C13A
1.04
U7G U8G G9A U10C U11C C12U C13A
1.04
U7C U8G G9C U10G U11G
1.23
U7G U8A G9A U10C U11C C13G
1.02
U8A G9A U10G U11C C12G C13U
1.18
U7G G9U U10C U11G C12U
1.49
U7G U10G C12A C13G
1.11
U7G U8G G9U U10G C12G
1.33
U8A G9A U10G U11G C12U C13U
1.2
U8A G9U U10G U11C C12G C13G
1.07
U7G U8G G9C U11A C12U
1.53
U7C U8A G9A U10C U11G C12G C13G
1.12
U7C U8A G9A C13U
1.18
U8C G9C U11C C12A
1.08
U7G U8G G9U U10G C13A
1.27
U7C U8A G9A U10A U11C
1.02
G9C U10C U11C C13U
1.02
U7A U8C G9A U10G C13A
1.17
U7A G9A U10G U11C C12A C13G
1.14
U7G U8A U10G C12U C13A
1.6
U8G G9A U10G U11G C12G
1.33
U7G U8G G9U U10A U11G C13G
1.13
U7A U8A G9C C12A C13G
1.13
U7G G9U U11G C13A
1.3
